- METHOD_DESCRIPTION: Resazurin cell viability assay, HeLa
- Assay type: cell-based
- ASSAY_SETUP: human, HeLa cells, three biological replicates, read-out: HeLa CC50 ± SD
For each record, write down the corresponding CC50 at 48 h.
The reply must contain the numeric value and, after it, the unit.

Entry C[C@H](Nc1c(-c2c(F)cc(OCCCO)cc2F)c(Cl)nc2ncnn12)C(F)(F)F [Compound 64] ; CC50 at 48 h = 189 nM

Record summary for C[C@@H](Nc1c(-c2c(F)cc(C#CCCO)cc2F)c(Cl)nc2ncnn12)C(C)(C)C [Compound 53] : reported CC50 at 48 h = 30.8 nM

Record C[C@@H](Nc1c(-c2c(F)cc(C#N)cc2F)c(Cl)nc2ncnn12)C(C)(C)C [Compound 68] , field CC50 at 48 h: 41.7 nM

###

- METHOD_DESCRIPTION: Resazurin cell viability assay, QBI293
- Type: cell-based
- ASSAY_SETUP: human, QBI293 cells, three biological replicates, read-out: QBI293 CC50 ± SD
Hi! Could you tag entries with CC50 at 48 h below 30 nM as 1, and those at or above as 0? Much appreciated.

IN: is_below(CC50 at 48 h, 30 nM) for `C[C@H](Nc1c(-c2c(F)cc(OCCCO)cc2F)c(Cl)nc2ncnn12)C(F)(F)F` ?
OUT: 0

IN: Is the reported CC50 at 48 h for CC[C@]1(O)C[C@@H]2CN(CCc3c([nH]c4ccccc34)[C@@](C(=O)OC)(c3cc4c(cc3OC)N(C)[C@H]3[C@@](O)(C(=O)OC)[C@H](OC(C)=O)[C@]5(CC)C=CCN6CC[C@]43[C@@H]65)C2)C1 [Vinblastine, reference compound] strictly below 30 nM?
OUT: 1

IN: Here's an entry: CC(=O)O[C@H]1C(=O)[C@@]2(C)[C@H]([C@H](OC(=O)c3ccccc3)[C@]3(O)C[C@H](OC(=O)[C@H](O)[C@@H](NC(=O)c4ccccc4)c4ccccc4)C(C)=C1C3(C)C)[C@]1(OC(C)=O)CO[C@@H]1C[C@@H]2O [Taxol, reference compound] . Is its CC50 at 48 h below 30 nM?
OUT: 1

###

- METHOD_DESCRIPTION: Resazurin cell viability assay, HeLa
- Type: cell-based
- ASSAY_SETUP: human, HeLa cells, three biological replicates, read-out: HeLa CC50 ± SD
VALUE_TYPE: CC50 at 48 h (nM)
Answer with a number only, understood to be in nM.

response.value for CC[C@]1(O)C[C@@H]2CN(CCc3c([nH]c4ccccc34)[C@@](C(=O)OC)(c3cc4c(cc3OC)N(C)[C@H]3[C@@](O)(C(=O)OC)[C@H](OC(C)=O)[C@]5(CC)C=CCN6CC[C@]43[C@@H]65)C2)C1 [Vinblastine, reference compound] (field: CC50 at 48 h) = 2.11

The reported CC50 at 48 h of the molecule CC(=O)O[C@H]1C(=O)[C@@]2(C)[C@H]([C@H](OC(=O)c3ccccc3)[C@]3(O)C[C@H](OC(=O)[C@H](O)[C@@H](NC(=O)c4ccccc4)c4ccccc4)C(C)=C1C3(C)C)[C@]1(OC(C)=O)CO[C@@H]1C[C@@H]2O [Taxol, reference compound] was 1.53

###

- System: total α-tubulin (α-Tub) levels in QBI293 cells
- METHOD_DESCRIPTION: QBI293 cell assay: total α-tubulin ELISA
- Assay type: cell-based
- ASSAY_SETUP: 4 h, 10 uM compound, read-out: AlfaTub (10 uM)
Could you please report measured fold induction at 10 µM for the items listed next?
// response body must contain only the number

Input `CC(C)[C@@H](C)Nc1c(-c2c(F)cc(C#CCN(C)C)cc2F)c(Cl)nc2ncnn12` . Output fold induction at 10 µM: 1.03

// field: fold induction at 10 µM; key: `C[C@H](Nc1c(-c2c(F)cc(C#CCCN(C)C)cc2F)c(Cl)nc2ncnn12)C(F)(F)F` ; value = 0.93

In plain terms, `C[C@@H](Nc1c(-c2c(F)cc(C#CCCCO)cc2F)c(Cl)nc2ncnn12)C(C)(C)C` has a documented fold induction at 10 µM of 1.14

Sample `C[C@H](Nc1c(-c2c(F)cc(C#CCCO)cc2F)c(Cl)nc2ncnn12)C(F)(F)F` ; fold induction at 10 µM observed: 0.69

Lookup result for `C[C@H](Nc1c(-c2c(F)cc(F)cc2F)c(Cl)nc2ncnn12)C1CC1` ; measured fold induction at 10 µM: 0.97

Form field fold induction at 10 µM, entry `C[C@@H](Nc1c(-c2c(F)cc(C#CCCN)cc2F)c(Cl)nc2ncnn12)C(C)(C)C` : 0.91

Item: `C[C@@H](Nc1c(-c2c(F)cc(F)cc2F)c(Cl)nc2ncnn12)C1CC1` | fold induction at 10 µM: 1.16

Form: compound = `CN(C)CCCOc1cc(F)c(-c2c(Cl)nc3ncnn3c2NCC2(C)CC2)c(F)c1` ; fold induction at 10 µM = 1.1

Record `CN(C)CCCOc1cc(F)c(-c2c(Cl)nc3ncnn3c2NCC(C)(C)C)c(F)c1` , field fold induction at 10 µM: 0.73

// fold induction at 10 µM lookup, compound = `C#Cc1cc(F)c(-c2c(Cl)nc3ncnn3c2N[C@H](C)C(C)C)c(F)c1` , result: 1.03

The recorded fold induction at 10 µM for entry `Fc1cc(F)c(-c2c(Cl)nc3ncnn3c2NCC2(C(F)(F)F)CC2)c(F)c1` equals 0.97

Note to self: fold induction at 10 µM recorded for `C[C@H](Nc1c(-c2c(F)cc(OCCCCCO)cc2F)c(Cl)nc2ncnn12)C(F)(F)F` was 0.28

Form: compound = `C[C@@H](Nc1c(-c2c(F)cc(C#CCN(C)C)cc2F)c(Cl)nc2ncnn12)C(C)(C)C` ; fold induction at 10 µM = 0.84

compound `C[C@@H](Nc1c(-c2c(F)cc(OCCCO)cc2F)c(Cl)nc2ncnn12)C(C)(C)C` , fold induction at 10 µM observed: 1.06

// field: fold induction at 10 µM; key: `CNCC#Cc1cc(F)c(-c2c(Cl)nc3ncnn3c2N[C@H](C)C(C)C)c(F)c1` ; value = 0.96

// field: fold induction at 10 µM; key: `CC(C)[C@@H](C)Nc1c(-c2c(F)cc(C#CCCCO)cc2F)c(Cl)nc2ncnn12` ; value = 1.37

Value of fold induction at 10 µM reported for the compound `C[C@@H](Nc1c(-c2c(F)cc(C#CCCN(C)C)cc2F)c(Cl)nc2ncnn12)C(C)(C)C` is 0.98

Entry `C[C@H](Nc1c(-c2c(F)cc(C#CCCCO)cc2F)c(Cl)nc2ncnn12)C(F)(F)F` ; fold induction at 10 µM = 0.87

`CC(C)[C@@H](C)Nc1c(-c2c(F)cc(C#CCCO)cc2F)c(Cl)nc2ncnn12` has a reported fold induction at 10 µM of 0.95

// fold induction at 10 µM value for `CC(C)[C@@H](C)Nc1c(-c2c(F)cc(C#CCCN(C)C)cc2F)c(Cl)nc2ncnn12` : 1.15

Note to self: fold induction at 10 µM recorded for `Fc1cc(F)c(-c2c(Cl)nc3ncnn3c2NCC2CCC2)c(F)c1` was 0.96

###

Hi there, I'd appreciate the recorded AcTub 10 μM, fold-change compared to positive control compound 5 (100 nM) (in parentheses) for every entry that follows.
- Test system: acetylated α-tubulin (AcTub) levels in QBI293 cells
- METHOD_DESCRIPTION: QBI293 cell assay of MT stabilization: acetylated α-tubulin ELISA
- Assay type: cell-based
- ASSAY_SETUP: 4 h incubation, 10 μM
Write the value in fold-change as a bare number.

What the record says about `C[C@H](Nc1c(-c2c(F)cc(C#CCCO)cc2F)c(Cl)nc2ncnn12)C(F)(F)F` : AcTub 10 μM, fold-change compared to positive control compound 5 (100 nM) (in parentheses) is 0.92

Looking up `CC(C)[C@@H](C)Nc1c(-c2c(F)cc(C#CCCO)cc2F)c(Cl)nc2ncnn12` , I see its AcTub 10 μM, fold-change compared to positive control compound 5 (100 nM) (in parentheses) listed as 0.82

Lab note: measured AcTub 10 μM, fold-change compared to positive control compound 5 (100 nM) (in parentheses) of `C[C@H](Nc1c(-c2c(F)cc(F)cc2F)c(Cl)nc2ncnn12)C1CC1` was 0.15

Memo: `C[C@@H](Nc1c(-c2c(F)cc(C#CCCN)cc2F)c(Cl)nc2ncnn12)C(C)(C)C` , reported AcTub 10 μM, fold-change compared to positive control compound 5 (100 nM) (in parentheses): 1.21

# AcTub 10 μM, fold-change compared to positive control compound 5 (100 nM) (in parentheses) (compound: `CN(C)CCCOc1cc(F)c(-c2c(Cl)nc3ncnn3c2NCC(C)(C)C)c(F)c1` ) is 0.10

Reported AcTub 10 μM, fold-change compared to positive control compound 5 (100 nM) (in parentheses) of `CC(C)[C@@H](C)Nc1c(-c2c(F)cc(C#CCCN(C)C)cc2F)c(Cl)nc2ncnn12` : 1.24

Data point: `CNCC#Cc1cc(F)c(-c2c(Cl)nc3ncnn3c2N[C@H](C)C(C)(C)C)c(F)c1` ; AcTub 10 μM, fold-change compared to positive control compound 5 (100 nM) (in parentheses) = 1.16

Short answer for `C[C@@H](Nc1c(-c2c(F)cc(C#CCCO)cc2F)c(Cl)nc2ncnn12)C(C)(C)C` : AcTub 10 μM, fold-change compared to positive control compound 5 (100 nM) (in parentheses) was 0.81

AcTub 10 μM, fold-change compared to positive control compound 5 (100 nM) (in parentheses) measured on `CC1(CNc2c(-c3c(F)cc(F)cc3F)c(Cl)nc3ncnn23)CC1` = 0.49

Lookup result for `CNCC#Cc1cc(F)c(-c2c(Cl)nc3ncnn3c2N[C@H](C)C(C)C)c(F)c1` ; measured AcTub 10 μM, fold-change compared to positive control compound 5 (100 nM) (in parentheses): 0.79

# AcTub 10 μM, fold-change compared to positive control compound 5 (100 nM) (in parentheses) (compound: `C[C@@H](Nc1c(-c2c(F)cc(OCCCO)cc2F)c(Cl)nc2ncnn12)C(C)(C)C` ) is 0.98

Entry under test: `C[C@@H](Nc1c(-c2c(F)cc(F)cc2F)c(Cl)nc2ncnn12)C1CC1` . Its AcTub 10 μM, fold-change compared to positive control compound 5 (100 nM) (in parentheses) was 0.40

So, `CN(C)CCCOc1cc(F)c(-c2c(Cl)nc3ncnn3c2NCC2(C)CC2)c(F)c1` ? Its AcTub 10 μM, fold-change compared to positive control compound 5 (100 nM) (in parentheses) was 0.09

Memo: `C#Cc1cc(F)c(-c2c(Cl)nc3ncnn3c2N[C@H](C)C(C)C)c(F)c1` , reported AcTub 10 μM, fold-change compared to positive control compound 5 (100 nM) (in parentheses): 0.88

According to the records, this compound `C[C@H](Nc1c(-c2c(F)cc(C#CCCCO)cc2F)c(Cl)nc2ncnn12)C(F)(F)F` displays AcTub 10 μM, fold-change compared to positive control compound 5 (100 nM) (in parentheses) of 1.93

// sample `CC(C)[C@@H](C)Nc1c(-c2c(F)cc(C#CCN(C)C)cc2F)c(Cl)nc2ncnn12` , its AcTub 10 μM, fold-change compared to positive control compound 5 (100 nM) (in parentheses) was 1.40

The value of AcTub 10 μM, fold-change compared to positive control compound 5 (100 nM) (in parentheses) measured for the compound `Fc1cc(F)c(-c2c(Cl)nc3ncnn3c2NCC2(C(F)(F)F)CC2)c(F)c1` turned out to be 0.34

Form: compound = `Fc1cc(F)c(-c2c(Cl)nc3ncnn3c2NCC2CCC2)c(F)c1` ; AcTub 10 μM, fold-change compared to positive control compound 5 (100 nM) (in parentheses) = 0.44

Query `CN(C)CCCOc1cc(F)c(-c2c(Cl)nc3ncnn3c2NCC2(C(F)(F)F)CC2)c(F)c1` yields AcTub 10 μM, fold-change compared to positive control compound 5 (100 nM) (in parentheses) of 0.14

compound `C[C@@H](Nc1c(-c2c(F)cc(C#CCCN(C)C)cc2F)c(Cl)nc2ncnn12)C(C)(C)C` , AcTub 10 μM, fold-change compared to positive control compound 5 (100 nM) (in parentheses) observed: 1.28

Item: `CN(C)CCCOc1cc(F)c(-c2c(Cl)nc3ncnn3c2NCC2CCC2)c(F)c1` | AcTub 10 μM, fold-change compared to positive control compound 5 (100 nM) (in parentheses): 0.15

Please fill in: AcTub 10 μM, fold-change compared to positive control compound 5 (100 nM) (in parentheses) reported for `C[C@H](Nc1c(-c2c(F)cc(C#CCCN(C)C)cc2F)c(Cl)nc2ncnn12)C(F)(F)F` = 1.17

Entry `C[C@H](Nc1c(-c2c(F)cc(OCCCCO)cc2F)c(Cl)nc2ncnn12)C(F)(F)F` ; AcTub 10 μM, fold-change compared to positive control compound 5 (100 nM) (in parentheses) = 0.6

Item: `C[C@H](Nc1c(-c2c(F)cc(OCCCCCO)cc2F)c(Cl)nc2ncnn12)C(F)(F)F` | AcTub 10 μM, fold-change compared to positive control compound 5 (100 nM) (in parentheses): 0.96

Lookup result for `CC(C)[C@@H](C)Nc1c(-c2c(F)cc(C#CCCCO)cc2F)c(Cl)nc2ncnn12` ; measured AcTub 10 μM, fold-change compared to positive control compound 5 (100 nM) (in parentheses): 0.68

compound `C[C@@H](Nc1c(-c2c(F)cc(C#CCN(C)C)cc2F)c(Cl)nc2ncnn12)C(C)(C)C` , AcTub 10 μM, fold-change compared to positive control compound 5 (100 nM) (in parentheses) observed: 1.43

Value of AcTub 10 μM, fold-change compared to positive control compound 5 (100 nM) (in parentheses) reported for the compound `C[C@@H](Nc1c(-c2c(F)cc(C#CCCCO)cc2F)c(Cl)nc2ncnn12)C(C)(C)C` is 0.87
